experiment: Nuclear factor erythroid 2-related factor 2/antioxidant responsive element (Nrf2/ARE) small molecule agonists: qHTS cell viability counter screen in human keratinocytes (AID 1919968); conditions: KeratinoSens HaCaT ARE cells viability, CellTiter-Fluor, 24 h; series mostly up to 92.4 µM; note: nearly all actives have a fitted effect of over 55% in size
Results filed as inconclusive are left out. Active and inactive are the calls of the source. Calls come from the whole dose curve; as a rule, active = well fitted cell-killing curve with a large enough effect in the repeat runs; inconclusive = weak or mixed curves, or effect the other way; inactive = flat fitted curve, though single readings scatter.
Form entry, call: pick from 1 for active, -1 for inactive

Query block: Entry O=C(Nc1ccccc1)OCC(CN1CCCCC1)OC(=O)Nc1ccccc1 (stereo not drawn) : call = ?
Result block: -1

Query block: Now consider CC(=O)OCC(=O)NCCCOc1cccc(CN2CCCCC2)c1 and answer again.
Result block: -1

Query block: // repeat for O=C(N[C@H](CO)[C@H](O)c1ccc([N+](=O)[O-])cc1)C(Cl)Cl and report
Result block: -1

Query block: Continue with CCCC(=O)OC
Result block: -1

Query block: Field entry: Cc1cc(NC(=O)C(=O)O)cc(C)c1Oc1ccc(O)c2c1CCC2
Result block: -1

Query block: Also check O=C(Nc1cccc(C(F)(F)F)c1)c1cc(Br)cc(Br)c1O
Result block: 1

Query block: And what about the molecule C=C(C)[C@@H]1CC=C(C)CC1 ?
Result block: -1

Query block: Please give the result for Cc1cc(C(C#N)c2ccc(Cl)cc2)c(Cl)cc1NC(=O)c1cc(I)cc(I)c1O (stereo not drawn) too.
Result block: 1

Query block: Next record, please: CCCCCCOC(=O)c1ccccc1
Result block: -1

Query block: Then this molecule: CN(C)CC/C=C1\c2ccccc2COc2ccccc21
Result block: -1

Query block: // repeat for COc1ccc(S(=O)(=O)N2C(=O)[C@@](c3ccccc3OC)(N3C[C@H](O)C[C@H]3C(=O)N(C)C)c3cc(Cl)ccc32)c(OC)c1 and report
Result block: -1

Query block: And then CCN1C=CN(C)C1C (stereo not drawn) , what is it?
Result block: -1

Query block: Also, CC(C(=O)O)c1ccc(C(=O)c2cccs2)cc1 (stereo not drawn) please.
Result block: -1

Query block: Proceed to C/C=C1/C(=O)C[C@H]2[C@@H]3CCC4=CC(=O)CC[C@]4(C)[C@H]3CC[C@]12C
Result block: -1

Query block: // same read-out, input: CC(C)c1ccc2ncccc2c1
Result block: -1

Query block: Same thing, different molecule: O=C(O)COc1nn(Cc2ccccc2)c2ccccc12
Result block: -1

Query block: Note, next up: O=C1NC(=O)c2cc([N+](=O)[O-])ccc21
Result block: -1

Query block: Continue with CCCCC(CC)COC(=O)CCCCC(=O)OCc1ccccc1 (stereo not drawn)
Result block: -1

Query block: What about O=C(OCCOCCOCCOC(=O)c1ccccc1)c1ccccc1 ?
Result block: -1

Query block: Next up: CCN=C1C=CC(=C(c2ccc(N(CC)CC)cc2)c2ccc(N(CC)CC)cc2)c2ccccc21
Result block: 1

Query block: And what about the molecule CC1=C(C(=O)O)N2C(=O)[C@@H](NC(=O)[C@H](N)c3ccccc3)[C@H]2SC1 ?
Result block: -1

Query block: Try this molecule next: CCCCCCCCCCCCCCC[C@H](O)[C@@H](N)CO
Result block: -1

Query block: Further, for CCc1ccc2c(c1)C(=O)c1ccccc1C2=O ?
Result block: -1

Query block: What do we get for O=C(O)c1ccc(O)c(O)c1 ?
Result block: -1

Query block: # iterate: CCCCCCCCCCCCCCCBr
Result block: -1

Query block: Also need CCOc1ccc(NC(C)=O)cc1N , thanks.
Result block: -1

Query block: // repeat for C[C@@H](N)C(=O)O and report
Result block: -1

Query block: Next: CCO[Si](CCCSSSSCCC[Si](OCC)(OCC)OCC)(OCC)OCC
Result block: 1

Query block: Check CC(=O)[O][Al] too.
Result block: -1

Query block: Param item: Nc1nc(Cl)cc(Cl)n1
Result block: -1

Query block: Another: CCO/C=C1\N=C(c2ccccc2)OC1=O
Result block: -1

Query block: Now the same for O=C=NCC1CCCC(CN=C=O)C1 (stereo not drawn)
Result block: -1

Query block: Now give it for Cn1cc(C(=O)[C@@H]2CCc3nc[nH]c3C2)c2ccccc21 too.
Result block: -1

Query block: Follow-up entry: CCCCN(CCCC)CCC(O)c1cc2c(Cl)cc(Cl)cc2c2cc(C(F)(F)F)ccc12 (stereo not drawn)
Result block: 1

Query block: Same thing, different molecule: COc1cc(C(C)(C)C)c(O)c(C(C)(C)C)c1
Result block: -1

Query block: What would you report for CCC(CC)Nc1ccc(C)c(C)c1 ?
Result block: -1

Query block: Similarly, COC(=O)CCCCCCCC(=O)OC ?
Result block: -1

Query block: Also, CC(=O)/C(C)=C/C1C(C)=CCCC1(C)C (stereo not drawn) please.
Result block: -1

Query block: What do we get for CCOC(=O)OCC ?
Result block: -1

Query block: Try this molecule next: Cc1nn(C)c(Oc2ccccc2)c1/C=N/OCc1ccc(C(=O)OC(C)(C)C)cc1
Result block: -1

Query block: Next: CC(C)(C)C1CCCCC1=O (stereo not drawn)
Result block: -1

Query block: Continue with C[C@H]1[C@@H](c2ccccc2)NC(=O)N1C
Result block: -1

Query block: Same again, this time with CC1(C)[C@H](C(=O)O)N2C(=O)C[C@H]2S1(=O)=O
Result block: -1

Query block: Also check CCN(Cc1ccccc1)c1ccccc1
Result block: -1

Query block: Same question, CN(c1nccc(=O)[nH]1)C1CCN(c2nc3ccccc3n2Cc2ccc(F)cc2)CC1 this time
Result block: -1

Query block: Now consider CCCC(=O)OCCc1ccccc1 .
Result block: -1

Query block: Try CC(C)N(C)C next.
Result block: -1

Query block: # iterate: Oc1ccc(N=Nc2ccccc2)cc1
Result block: 1

====

biological target: Beta-2 adrenergic receptor (Homo sapiens) (UniProt P07550); experiment: Adrenergic beta2 receptor (ADRB2) small molecule agonists, cell-based qHTS assay (AID 1963593); details: CHO-ADRB2 cells, cAMP HTRF, 30 min; series mostly up to 92.4 µM;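 note: CHO cells stably overexpressing human ADRB2; % is set by controls: 0 for no effect and ±100 for the full control effect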
Sequence (P07550 whole entry, looked up): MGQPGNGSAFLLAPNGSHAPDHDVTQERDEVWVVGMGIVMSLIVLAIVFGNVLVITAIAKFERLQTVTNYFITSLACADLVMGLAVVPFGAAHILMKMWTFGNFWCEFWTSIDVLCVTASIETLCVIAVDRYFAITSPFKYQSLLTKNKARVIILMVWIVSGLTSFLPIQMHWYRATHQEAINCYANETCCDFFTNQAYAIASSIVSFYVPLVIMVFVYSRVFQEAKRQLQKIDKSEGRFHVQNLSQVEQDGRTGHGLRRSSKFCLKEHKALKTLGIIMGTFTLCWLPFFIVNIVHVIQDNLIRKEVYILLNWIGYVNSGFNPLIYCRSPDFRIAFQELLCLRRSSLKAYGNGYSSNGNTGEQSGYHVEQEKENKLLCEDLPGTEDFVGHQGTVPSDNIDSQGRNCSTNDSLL
Inconclusive results are not listed. Active and inactive are the calls of the source. Calls come from the whole dose curve.
METRIC: activation

In [3]: df
Out[3]:
                                   compound      metric                        result
0       Cn1ccc2cc3c(cc21)CCN3C(=O)Nc1cccnc1  activation  -9.02% [at 19 µM] (inactive)
1                     CC(C)(CO)[N+](=O)[O-]  activation                      inactive
2  CCCCNc1ccc(C(=O)OCCOCCOCCOCCOCCOCCOCCOCCOCCOC)cc1  activation                      inactive
3                  CC(C)(C)c1ccc(C(=O)O)cc1  activation                      inactive
4                  CCCCCCCOC(=O)c1ccc(O)cc1  activation                      inactive

Query block: # input compound: CCc1cccc2c(CCO)c[nH]c12 ; wanted: its activation
Result block: inactive

Query block: Item: NC(Cc1ccc(F)cc1)C(=O)O (configuration not stated)
Result block: -31.2% [at 8.39 µM] (inactive)

====

biological target: Muscarinic acetylcholine receptor M1 (Homo sapiens) (UniProt P11229); test: Cholinergic receptor muscarinic 1 (CHRM1) small molecule antagonists, cell-based qHTS assay (AID 1963588); conditions: CHRM1-CHO antagonist mode, calcium flux fluorescence; series mostly up to 61.5 µM; note: % is set by controls: 0 for no effect and ±100 for the full control effect; nearly all actives have a fitted effect of over 40% in size
Sequence (P11229 whole entry, looked up): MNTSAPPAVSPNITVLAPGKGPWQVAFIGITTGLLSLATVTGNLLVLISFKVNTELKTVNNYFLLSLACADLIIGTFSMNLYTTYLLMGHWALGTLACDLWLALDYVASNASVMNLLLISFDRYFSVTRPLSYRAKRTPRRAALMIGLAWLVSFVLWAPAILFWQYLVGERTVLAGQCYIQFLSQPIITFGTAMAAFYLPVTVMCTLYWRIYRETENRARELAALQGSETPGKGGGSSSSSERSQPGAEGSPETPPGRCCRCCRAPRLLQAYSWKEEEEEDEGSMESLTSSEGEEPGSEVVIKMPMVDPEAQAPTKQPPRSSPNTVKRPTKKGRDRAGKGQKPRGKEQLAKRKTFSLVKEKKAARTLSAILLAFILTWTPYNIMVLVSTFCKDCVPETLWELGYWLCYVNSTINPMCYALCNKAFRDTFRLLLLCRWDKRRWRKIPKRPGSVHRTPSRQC
Results filed as inconclusive are left out. Calls of active or inactive are those of the source. The call rests on the fitted dose curve.
METRIC: outcome

                                   compound    result
0  c1cc(OCC2CO2)cc(OCC2CO2)c1 (stereo not drawn)  inactive
1    NC(CSCC(=O)O)C(=O)O (stereo not drawn)  inactive
2  CC(C)C(O)(c1ccc(OC(F)(F)F)cc1)c1cncnc1 (stereo not drawn)  inactive

====

assay: p53 small molecule agonists, cell-based qHTS assay with human liver microsomes: qHTS cell viability counter screen (AID 1963579); details: p53RE-bla HCT-116 viability, ATP luminescence, 16 h, HLM; series mostly up to 66 µM; note: nearly all actives have a fitted effect of over 45% in size
Results filed as inconclusive are left out. Activity calls are given as the source filed them. The call rests on the fitted dose curve.
Please answer using one outcome listed in y for active, n for inactive

Query block: Could you please tell me the result logged for OCCN1CCN(CC/C=C2/c3ccccc3Sc3ccc(C(F)(F)F)cc32)CC1 in this assay?
Result block: n

Query block: // next record c1ccc2c(c1)-c1ccc3ccc4cccc5cc-2c1c3c45
Result block: n

Query block: Same question for c1coc(Cn2cccc2)c1 please.
Result block: n

Query block: Again, but for O=C1C=CC(=O)N1
Result block: y

Query block: Subsequent entry: CC(S)C(C)S (configuration not stated)
Result block: n

Query block: Again, but for CCC(CN)=C(c1ccccc1)c1ccccc1
Result block: n

Query block: Next compound up: CN(C)CCOC(=O)C(c1ccccc1)C1(O)CCCC1 (configuration not stated)
Result block: n

Query block: Consider next the compound CCN(CC)CCCN(c1ccccc1)C1Cc2ccccc2C1 in the same way.
Result block: n

Query block: What do you get for CC(C)NC(=O)c1ccc(C=O)cc1 ?
Result block: n

Query block: // query: O=c1cc(-c2ccccc2)oc2cc(O)cc(O)c12
Result block: n

Query block: Another compound to look at: O=C(/C=C/c1ccccc1)NCCO
Result block: n

Query block: CO[C@]1(NC(=O)CSC(F)F)C(=O)N2C(C(=O)O)=C(CSc3nnnn3CCO)CO[C@H]21 , same question.
Result block: n
